Test system: SNB-19
Experiment: NCI tumour cell line growth inhibition, 48 h
Activity calls are given as the source filed them. Rule as the data show it: active = GI50 up to about 1.1 µM and inactive = higher. Square brackets hold non-standard residues; d marks the D form. Peptide text beside a SMILES is read from it.
property.measured: GI50

// GI50 lookup, compound = Cn1cc(C(=O)C[n+]2ccccc2)c2ccccc21 , result: 52.8 µM (inactive)

// GI50 lookup, compound = N=C(N)NCCC[C@H]1NC(=O)[C@@H](CCC(=O)O)NC(=O)[C@@H](CC(=O)O)NC(=O)[C@@H](CCC(=O)O)NC(=O)[C@H](Cc2c[nH]c3ccccc23)NC1=O (cyclo(W[dE][dD][dE][dR])) , result: > 7.5 µM (inactive)

// GI50 lookup, compound = O=[N+]([O-])c1ccc(C2=Nn3cnnc3SC2)o1 , result: 29 µM (inactive)

// GI50 lookup, compound = CN(C)CCCN1c2ccccc2CCc2ccc([N+](=O)[O-])cc21 , result: 45.1 µM (inactive)

// GI50 lookup, compound = COC(=O)c1c(O)ccc2c1c1c(n2CCc2ccccc2)C(=O)c2ccccc2C1 , result: 24.8 µM (inactive)

// GI50 lookup, compound = O=C(NC1=C(Cl)C(=O)c2ccccc2C1=O)C(=O)c1c(O)c2ccccc2oc1=O , result: 4.6 µM (inactive)

// GI50 lookup, compound = CC(NC1=CC(=O)c2cccnc2C1=O)C(O)c1ccccc1 (stereo not given) , result: 2.08 µM (inactive)

// GI50 lookup, compound = Cc1ccc(S(=O)(=O)Nc2cccc(C)c2C)cc1 , result: > 100 µM (inactive)

// GI50 lookup, compound = COC(=O)/C=C(\S/C(=C(/c1ccccc1)n1cc(C(=O)OC)c(C(=O)OC)n1)c1ccccc1)C(=O)OC , result: 19.5 µM (inactive)

// GI50 lookup, compound = O=C(Cc1ccc(O)c(O)c1)NCc1c[nH]c2ccccc12 , result: 94 µM (inactive)

// GI50 lookup, compound = CNc1nnc(CCCCCCCCc2nnc(NC)o2)o1 , result: > 100 µM (inactive)

// GI50 lookup, compound = C/C=N\N1C(=O)c2ccccc2C1=O , result: > 100 µM (inactive)

// GI50 lookup, compound = Cc1n[nH]c(=O)c2c3c([nH]c12)-c1ccccc1C3 , result: > 100 µM (inactive)

// GI50 lookup, compound = COc1cc([N+](=O)[O-])c(S(=O)(=O)O)cc1N , result: > 100 µM (inactive)

// GI50 lookup, compound = CCCC/C(C)=N/NC(N)=S , result: > 100 µM (inactive)

// GI50 lookup, compound = COc1c(Cl)nc2ccccc2c1N=[N+]=[N-] , result: > 100 µM (inactive)

// GI50 lookup, compound = Cc1cc(C)c(C#N)c(SC(=S)NC(=O)c2ccc(Cl)cc2)n1 , result: > 100 µM (inactive)

// GI50 lookup, compound = COC(=O)Nc1nc(=O)c2ccccc2[nH]1 , result: > 100 µM (inactive)

// GI50 lookup, compound = Cc1cn(C2CC(Br)C(COC(c3ccccc3)(c3ccccc3)c3ccccc3)O2)c(=O)[nH]c1=O (stereo not given) , result: 16.3 µM (inactive)

// GI50 lookup, compound = Cc1nc2ccccc2c(=O)n1-c1n[nH]c2ccccc12 , result: > 100 µM (inactive)

// GI50 lookup, compound = NC(=O)c1c(-c2ccccc2)c(-c2ccccc2)cc2c(=O)c3ccccc3[nH]c12 , result: 21 µM (inactive)

// GI50 lookup, compound = Brc1ccc(/N=N/c2ccc3ccccc3n2)cc1 , result: 15.9 µM (inactive)

// GI50 lookup, compound = C=C1C(=O)O[C@H]2C1[C@H](OC(=O)/C(C)=C\COC(C)=O)C[C@]1(CO1)[C@@H]1[C@H](O)[C@H]3O[C@@]3(C)[C@@H]12 (stereo not given in full) , result: > 100 µM (inactive)

// GI50 lookup, compound = O=[N+]([O-])/C=C/c1cc2ccc3ccccc3c2[nH]1 , result: 2.66 µM (inactive)

// GI50 lookup, compound = O=c1cc(NCC2CCCCC2)[nH]c(=O)[nH]1 , result: > 100 µM (inactive)

// GI50 lookup, compound = Brc1ccc2c(-c3csc(-c4c[nH]c5cc(Br)ccc45)n3)c[nH]c2c1 , result: 21.3 µM (inactive)

// GI50 lookup, compound = COc1cc2c(cc1OC)C(N)CC2=O (stereo not given) , result: > 100 µM (inactive)

// GI50 lookup, compound = O=C(CN1C(=O)c2ccccc2C1=O)OCC1CCCN2CCCCC12 (stereo not given) , result: > 100 µM (inactive)

// GI50 lookup, compound = COc1cc(C(=O)C2C(=O)c3ccccc3C2C2(O)c3ccccc3CC2C(O)c2cc(OC)c(OC)c(OC)c2)cc(OC)c1OC (stereo not given) , result: > 100 µM (inactive)

// GI50 lookup, compound = O=[N+]([O-])c1ccc2sc(/C=N/c3ccccn3)cc2c1 , result: > 100 µM (inactive)
